tested on: LoVo; assay: Cytotoxicity against human doxorubicin resistant LoVo cells after 48 hrs by SRB assay; assay type: functional
Listed below: GI50 values for each entry.

| molecule | GI50 / µM |
| --- | --- |
| C/C=C1\NC(=O)[C@H](Cc2ccc([N+](=O)[O-])cc2)NC(=O)[C@@H](C(C)C)NC(=O)[C@@H]([C@H](C)CC)NC(=O)[C@H](NC(=O)[C@H](NC(=O)[C@H](CCCN)NC(=O)[C@H]2CCCN2C(=O)[C@H](NC(=O)[C@@H](NC(=O)[C@@H](NC(=O)[C@H](NC(=O)CC[C@@H](C)CC)C(C)C)[C@@H](C)O)C(C)C)C(C)C)[C@H](C)CC)[C@H](C)OC(=O)[C@H](C(C)C)NC1=O | 0.0904 |
| C/C=C1\NC(=O)[C@H](Cc2ccccc2)N(C)C(=O)[C@@H](C(C)C)NC(=O)[C@@H]([C@H](C)CC)NC(=O)[C@H](NC(=O)[C@H](NC(=O)[C@H](CCCN)NC(=O)[C@H]2CCCN2C(=O)[C@H](NC(=O)[C@@H](NC(=O)[C@@H](NC(=O)[C@H](NC(=O)CC[C@@H](C)CC)C(C)C)[C@@H](C)O)C(C)C)C(C)C)[C@H](C)CC)[C@H](C)OC(=O)[C@H](C(C)C)NC1=O | 0.318 |
| C/C=C1\NC(=O)[C@H](Cc2ccccc2)NC(=O)[C@@H](C(C)C)NC(=O)[C@@H]([C@H](C)CC)NC(=O)[C@H](NC(=O)[C@H](NC(=O)[C@H](CCCNC(=O)C(F)(F)F)NC(=O)[C@H]2CCCN2C(=O)[C@H](NC(=O)[C@@H](NC(=O)[C@@H](NC(=O)[C@H](NC(=O)CC[C@@H](C)CC)C(C)C)[C@@H](C)OC(=O)C(F)(F)F)C(C)C)C(C)C)[C@H](C)CC)[C@H](C)OC(=O)[C@H](C(C)C)NC1=O | 0.363 |

###

test system: LNCaP; assay: Cytotoxicity against human LNcaP cells after 48 hrs by SRB assay; format: functional
Item-by-item account of GI50
result.type: GI50 (nM)

| molecule | result.type | recorded.number |
| --- | --- | --- |
| C/C=C1\NC(=O)[C@H](Cc2ccccc2)NC(=O)[C@@H](C(C)C)NC(=O)[C@@H]([C@H](C)CC)NC(=O)[C@H](NC(=O)[C@H](NC(=O)[C@H](CCCN)NC(=O)[C@H]2CCCN2C(=O)[C@H](NC(=O)[C@@H](NC(=O)[C@@H](NC(=O)[C@H](NC(=O)CCCCCCCCCCCCCCC)C(C)C)[C@@H](C)O)C(C)C)C(C)C)[C@H](C)CC)[C@H](C)OC(=O)[C@H](C(C)C)NC1=O | GI50 | 129 |
| C/C=C1\NC(=O)[C@H](Cc2ccccc2)NC(=O)[C@@H](C(C)C)NC(=O)[C@@H]([C@H](C)CC)NC(=O)[C@H](NC(=O)[C@H](NC(=O)[C@H](CCCN)NC(=O)[C@H]2CCCN2C(=O)[C@H](NC(=O)CCCC(C)C)C(C)C)[C@H](C)CC)[C@H](C)OC(=O)[C@H](C(C)C)NC1=O | GI50 | 9850 |
| C/C=C1\NC(=O)[C@H](Cc2ccccc2)NC(=O)[C@@H](C(C)C)NC(=O)[C@@H]([C@H](C)CC)NC(=O)[C@H](NC(=O)[C@H](NC(=O)[C@H](CCCNC(=O)C(F)(F)F)NC(=O)[C@H]2CCCN2C(=O)[C@H](NC(=O)[C@@H](NC(=O)[C@@H](NC(=O)[C@H](NC(=O)CC[C@@H](C)CC)C(C)C)[C@@H](C)O)C(C)C)C(C)C)[C@H](C)CC)[C@H](C)OC(=O)[C@H](C(C)C)NC1=O | GI50 | 1460 |

Reference source for all entries: ChEMBL document CHEMBL1156597
